test_protocol: NCI Yeast Anticancer Drug Screen. Data for the bub3 strain (AID 167)
condition_label: S. cerevisiae bub3 mutant strain, at 50.0 µM
This is part of a sample that, as a whole, favours compounds with a hit. Of some 79,000 tested, about 15% had one in any assay. Calls of active or inactive are those of the source. Cut-off read from the data, not from the text of the source: active = growth inhibition above about 70%; inactive = the rest.
Respond with a class label; see YES for active, NO for inactive

Input line: Which outcome was entered for the compound C=C(C)C1(CCC)C(=O)NC(=S)NC1=O in this test?
Output line: NO

Input line: Which outcome was entered for the compound CC(Cl)CNC1c2ccccc2CC1O (stereo unspecified) in this test?
Output line: NO

Input line: Which outcome was entered for the compound COc1ccc(C(=O)O[C@H]2CC[C@@]3(C)[C@@H]4CC[C@H]5[C@]6(O)C[C@H](O)[C@@]7(O)[C@@H](CN8C[C@@H](C)CC[C@H]8[C@@]7(C)O)[C@]6(O)C[C@@]53OC24O)cc1OC in this test?
Output line: NO

Input line: Which outcome was entered for the compound NC(=O)Nc1ccc([As](O)O)cc1 in this test?
Output line: NO

Input line: Which outcome was entered for the compound O=C(CC(O)C(Cl)(Cl)Cl)CC(O)C(Cl)(Cl)Cl (stereo unspecified) in this test?
Output line: NO

Input line: Which outcome was entered for the compound Nc1ccc2c(c1)Oc1ccc(N)cc1O2 in this test?
Output line: NO

Input line: Which outcome was entered for the compound CP(=S)(c1ccccc1)P(C)(=S)c1ccccc1 (stereo unspecified) in this test?
Output line: NO

Input line: Which outcome was entered for the compound Cc1ccc(OP(=O)(Oc2ccc(C)cc2)Oc2ccc(C)cc2)cc1.Cc1ccc(OP(=O)(Oc2ccc(C)cc2)Oc2ccc(C)cc2)cc1.Cc1ccc(OP(=O)(Oc2ccc(C)cc2)Oc2ccc(C)cc2)cc1.Cc1ccc(OP(=O)(Oc2ccc(C)cc2)Oc2ccc(C)cc2)cc1.[Nd+3].[O-][Cl+3]([O-])([O-])O in this test?
Output line: NO

Input line: Which outcome was entered for the compound CCCCOP(=S)(OCCCC)Oc1ccc(Cl)cc1Cl in this test?
Output line: NO

Input line: Which outcome was entered for the compound Cc1cc(N(CCCl)CCCl)ccc1C1N(Cc2ccc(N(CCCl)CCCl)cc2)CCCN1Cc1ccc(N(CCCl)CCCl)cc1 in this test?
Output line: NO

Input line: Which outcome was entered for the compound CC(CCl)N1CCCCCC1 (stereo unspecified) in this test?
Output line: NO

Input line: Which outcome was entered for the compound CCCOC(=O)C(C)(C)C(OP(OCCC)OCCC)=C(C)C in this test?
Output line: NO

Input line: Which outcome was entered for the compound N#CCc1ccc(CC#N)cc1 in this test?
Output line: NO

Input line: Which outcome was entered for the compound CC(Cl)CNC1CCCCC1 (stereo unspecified) in this test?
Output line: NO

Input line: Which outcome was entered for the compound NNC(=O)CCC(N)C(=O)O (stereo unspecified) in this test?
Output line: NO

Input line: Which outcome was entered for the compound CCC1(O)C(=O)OCc2c1cc1n(c2=O)Cc2cc3cc(N)ccc3nc2-1 (stereo unspecified) in this test?
Output line: NO

Input line: Which outcome was entered for the compound CCOP(=O)(/C=C/c1cc(OC)ccc1OC)OCC in this test?
Output line: NO

Input line: Which outcome was entered for the compound CCCCCC[n+]1noc(N)c1-c1ccc(-c2c(N)on[n+]2CCCCCC)cc1 in this test?
Output line: NO

Input line: Which outcome was entered for the compound CNC(=O)N1CN(c2ccccc2)C2(CCN(CCCC3(c4ccc(F)cc4)OCCO3)CC2)C1=O in this test?
Output line: NO

Input line: Which outcome was entered for the compound CCCCN1CCC2(C)c3cc(O)ccc3CC1C2CC (stereo unspecified) in this test?
Output line: NO

Input line: Which outcome was entered for the compound Nc1ccc2c(c1)[O][Sn]([c]1ccccc1)([c]1ccccc1)[O]C2=O in this test?
Output line: YES

====

test_protocol: NCI Yeast Anticancer Drug Screen. Data for the bub3 strain (AID 167)
condition_label: S. cerevisiae bub3 mutant strain, at 50.0 µM, hits give high values
This is part of a sample that, as a whole, favours compounds with a hit. Of some 79,000 tested, about 15% had one in any assay. Calls of active or inactive are those of the source. Cut-off read from the data, not from the text of the source: active = growth inhibition above about 70%; inactive = the rest.
measurement_type: growth inhibition

Documented growth inhibition of CCOC(CCCN1CCC2(CC1)C(=O)N(C)CN2c1ccccc1)(OCC)c1ccc(F)cc1 : 30.2% (inactive)

Documented growth inhibition of COC(=O)/C=C/[C@H]1[C@H](C)N1S(=O)(=O)c1ccc(C)cc1 (stereo partly specified) : -22.6% (inactive)

Documented growth inhibition of O=S(=O)(O)O.[In] : 26.5% (inactive)

Documented growth inhibition of CC(C)OP(=O)(OC(C)C)C(C)(C)O : -1.35% (inactive)

Documented growth inhibition of C(#CP(c1ccccc1)c1ccccc1)c1ccccc1 : 76.8% (active)

Documented growth inhibition of O=C1CN=C(c2ccccc2)c2cc(Cl)ccc2N1 : 8.55% (inactive)

Documented growth inhibition of CC(C)C1C=Cc2ccccc21 (stereo unspecified) : -3.55% (inactive)

Documented growth inhibition of CCOP(=O)(OCC)/C(C#N)=C/c1cccc(OC)c1 : 30.8% (inactive)

Documented growth inhibition of CCCCP(=O)(CCCC)CCCC.CCCCP(=O)(CCCC)CCCC.CCCCP(=O)(CCCC)CCCC.CCCCP(=O)(CCCC)CCCC.[Mn+2].[O-][Cl+3]([O-])([O-])O : -21.9% (inactive)

Documented growth inhibition of Cc1ccc(Oc2ccc3c(c2)CN(C)CC3)cc1 : 96.6% (active)

Documented growth inhibition of CC(C)CCC1C(=O)N(C)C(=O)N(C)C1=O : 0.55% (inactive)

====

Kindly supply the reported growth inhibition values for the records listed here.
test_protocol: NCI Yeast Anticancer Drug Screen. Data for the mlh1 rad18 strain (AID 175)
condition_label: S. cerevisiae mlh1 rad18 strain growth inhibition; at 50.0 µM; hits give high values
About 79,000 compounds went through this panel and 15% of them were active in at least one assay; those are over-represented in the sample as a whole.
Output spec: scalar in %, unitless text.

Documented growth inhibition of COc1cc2c(cc1OC)C13CCN4CC5=CCOC6CC(=O)N2C1C6C5CC43O (stereo unspecified) : -47.4

Documented growth inhibition of Cc1cc(N)ccc1N : -2.9

Documented growth inhibition of C#C[C@]1(O)CC[C@H]2[C@@H]3CCC4=C/C(=N/OC(=O)c5cccc6c(=O)c7ccccc7[nH]c56)CC[C@@H]4[C@H]3CC[C@@]21C : -3.55

Documented growth inhibition of CC1=CC(=O)CCC12CCOC2=O (stereo unspecified) : -7.55

Documented growth inhibition of O=C(O)c1ccccc1/C=N\NC(=S)NC1CN2CCC1CC2 (stereo unspecified) : -18.6

Documented growth inhibition of CCCC[N+]1(C)CCC(OC(=O)C(O)(c2ccccc2)C2CCCC2)C1 (stereo unspecified) : -5.5

Documented growth inhibition of N#CCC(N)C(=O)O (stereo unspecified) : 8.65

Documented growth inhibition of C1=CC2CCC1C2 : 7.85

Documented growth inhibition of NC(CCC(=O)NC(CSc1ccc([N+](=O)[O-])cc1[N+](=O)[O-])C(=O)NCC(=O)O)C(=O)O (stereo unspecified) : -11.1

Documented growth inhibition of CC1CCNC(C)C1 (stereo unspecified) : 8.6

Documented growth inhibition of C[N+]1(C)CCCC1c1cccnc1 (stereo unspecified) : 29.9

Documented growth inhibition of CCC1(C(C)=O)CN2CCc3cc(OC)c(OC)cc3C2N2CCc3ccc(OC)c(OC)c3C21 (stereo unspecified) : 98

Documented growth inhibition of CC(C)C1NC(C(C)C)N2C(C(C)C)N12 (stereo unspecified) : -1.5

Documented growth inhibition of OC1C2CCC1C(N1CCOCC1)CC2 (stereo unspecified) : 5.5

Documented growth inhibition of S=C=Nc1cccc2ccccc12 : -6.1

Documented growth inhibition of O=C1C=CC(=Nc2ccc(N(CCCl)CCCl)cc2)C=C1 : 3.5

Documented growth inhibition of CCC12C=CCN3CCC4(C(=C(C(=O)OC)C1)Nc1ccccc14)[C@H]32 (stereo partly specified) : 0.8

Documented growth inhibition of O.O=[N+]([O-])O.[NH2-].[NH2-].[Pt+2] : 31.4

Documented growth inhibition of CC([NH-])C(=O)O.[Cl][Pt][Cl] (stereo unspecified) : -9.55

Documented growth inhibition of OCCC[n+]1cccc2ccccc21 : -1.7

Documented growth inhibition of NNc1nncn1N : -6.25

Documented growth inhibition of CCOP12(OCC)NC(=O)OC1(C(F)(F)F)c1ccccc1O2 (stereo unspecified) : -36.4

Documented growth inhibition of O=C(O)C(F)F : -3.15

Documented growth inhibition of CCOC12CC3C4=CCOC5CC(=O)N6c7ccccc7C1(CCN2C4)C6C53 (stereo unspecified) : -1.2

Documented growth inhibition of COc1ccc2c(c1O)CN1CCc3cc4c(cc3C1C2)OCO4 (stereo unspecified) : 19.9

Documented growth inhibition of CN1CCCC(O)(C(=O)c2ccccc2)C1 (stereo unspecified) : 12.9
